Just for reference, ChEMBL document CHEMBL4513216 is where these values come from.

cytotoxicity at 10 µM for assorted compounds
- test_summary: Toxicity liver stage against HepG2, at 10uM
- Assay type: cell-based
- Design: test concentration 10 uM, cell line HepG2-A16-CD81EGFP
- experimental_conditions: human, HepG2-A16-CD81EGFP cells; read-out: INHIBITION
readout_type: cytotoxicity at 10 µM (%)

1. CC(C)(C)OC(=O)NC1(c2noc(-c3ccoc3)n2)CCC1: 3.12
2. O=c1n(CC2CC2)nc(C2CCNCC2)n1Cc1ccccc1: -4.8
3. Cc1cnc(N2Cc3nccn3CC(Cn3nc(C)nc3C)C2)nc1 (stereo not given): -144
4. OC1(CN(Cc2cccnc2)C2CCCCC2)CNCCOC1 (stereo not given): -21
5. Cc1nn(CC(C)C)c(N(C)C)c1CNCc1ccc2c(c1)OCO2: -1.05
6. COc1cnc(C2(O)CCN(C(=O)c3ccncc3)CC2)c(OC)n1: -4.38
7. Cc1noc(C)c1CN(C)Cc1csc(-c2ccc(F)cc2)n1: 27.8
8. NCC1CCC(C(NC(=O)c2ccccc2)c2ccccn2)CC1 (stereo not given): 0
9. COC(=O)c1cccc(C(=O)N2CCN(c3cc(Cl)ccc3C)CC2)n1: 81.2
10. CCCN1CCC(c2cc(CCOc3ccc(C(F)(F)F)cc3)[nH]n2)C1 (stereo not given): -3.58
11. c1cnc(N2CCOCC3(CCCN(c4nncs4)C3)C2)cn1 (stereo not given): 3.92
12. Cc1cc(CN2CCc3nc(C(C)C)nc(O)c3CC2)c(C)s1: -0.782
13. COCCOCC(=O)NC1CCN(c2ccccn2)CC1: -0.555
14. CC(=O)N1CCC(N[C@@H]2CO[C@H](CNC(=O)C3CCCC3)[C@H]2O)CC1: -2.17
15. Clc1ccc2cccnc2c1CN1CCn2c(nnc2C2CC2)C1: -2.19
16. CCn1cc(S(=O)(=O)NC2CCCN(CCCc3ccccc3)C2)cn1 (stereo not given): 8.08
17. CN1N=C(C(=O)N2CCCC(CCc3cccc(F)c3)C2)CCC1=O (stereo not given): -3.42
18. O=C(C1CC(c2ccccc2)=NO1)N1CCCCc2ccccc21 (stereo not given): 3.17
19. CC(C)n1cc(C(=O)NCCc2cn3ccsc3n2)cn1: 8.67
20. COc1cccc(SCC(=O)N2CCCC(N3CCCC3=O)C2)c1 (stereo not given): 6.16
21. CCc1nn(C)c(CC)c1CNC(=O)Nc1cccc2c1CCN2C: -1.57
22. CCC(=O)N1CCC(c2nnc(Cn3cncn3)n2C2CC2)CC1: -15.4
23. CCOCc1nn(C)c2c1CN(Cc1cccs1)CC2: -101
24. Cc1nc(C)n(CC2CCCN2Cc2cscn2)n1 (stereo not given): -2.05
25. OCCN1CCC(F)(F)C2(CCN(c3cccnc3)C2)C1 (stereo not given): -94.7
26. Cc1cn2c(n1)CCC(NC(=O)c1cc(C3CC3)[nH]n1)C2 (stereo not given): -16.9
27. Cc1cc2nc(SCC(=O)N3CCCC3)n(Cc3ccco3)c(O)c-2n1: 7.19
28. COCCS(=O)(=O)Cc1csc(NC(C)=O)n1: -2.93
29. O=C(C1COc2ccccc2C1)N(CCO)Cc1ccccc1 (stereo not given): 4.58
30. CCc1nc(C2CCCN(c3ncc(Br)cn3)C2)no1 (stereo not given): 1.47
31. O=C(NCc1cccnc1)NC1CCC2(CCC(=O)N2CC2CC2)CC1 (stereo not given): -114
32. Cn1ccnc1CN1CCCN(C(=O)CC(C2CC2)C2CC2)CC1: -19.8
33. CCN1C(=O)C2(CCN(CCN(C)C)CC2)c2ccccc21: -112
34. COC[C@@H]1CCC[C@]12CN(Cc1ccco1)CCO2: -4.89
35. Cn1cccc1C(=O)N1CCC2(CC1)c1nc[nH]c1CCN2S(C)(=O)=O: -0.359
36. Cc1cc(C)n(CCN2CCN(C(=O)c3ccc(Br)o3)CC2)n1: -8.46
37. COc1ccc(OCC(O)CN2CCN(c3nccs3)CC2)cc1 (stereo not given): -3.82
38. CC1CN(C(=O)c2nccnc2N)c2ccc(F)cc2O1 (stereo not given): 4.28
39. COc1cc(S(=O)(=O)N2CCc3cc(Br)ccc32)cc(C(=O)O)c1OC: -15.9
40. Cc1nccn1[C@@H]1CC[C@@H](N(C)S(=O)(=O)c2ccc(F)cc2)[C@H]1O: -0.535
